Answer each item with its documented Insulin secretion-promoting effect (%).
system: MIN6 cells; experiment: Insulinotropic effect on MIN6 cells; format: cell-based, mouse; details: compound 10 μM, 12.5 mM glucose, 2 hours, percentage of control
All answers are understood in %, so give the number only.

get_value(item= Cc1nc(-c2nc(-c3ccc(Cl)cc3)c(CCCCCO)o2)c[nH]1 , readout=Insulin secretion-promoting effect (%)) returns 359

Measured Insulin secretion-promoting effect (%) of Cc1nccn1-c1nc(-c2ccc(Cl)cc2)c(CCCO)o1 : 272

Lab note: measured Insulin secretion-promoting effect (%) of Cc1nccn1-c1nc(-c2ccc(Cl)cc2)c(CCCn2ccnc2)o1 was 303

Per the records, this compound ( Cc1nccn1-c1nc(-c2ccc(Cl)cc2)c(CCCCn2ccnc2)o1 ) has Insulin secretion-promoting effect (%) equal to 385

Short answer for Cc1nccn1-c1nc(-c2ccc(Cl)cc2)c(CCCCO)o1 : Insulin secretion-promoting effect (%) was 397

----------
Answer each item with its documented melting point.

// recorded melting point for O=C(O)CCCc1oc(Cl)nc1-c1ccc(Cl)cc1 [Example 62] : 211 to 212 °C

Value of measured melting point for the entry O=C(O)CCc1oc(Oc2ccccc2)nc1-c1ccc(Cl)cc1 [Example 5] : 136 to 137 °C

// recorded melting point for Cc1nccn1-c1nc(-c2ccc(Cl)cc2)c(CCCn2ccnc2)o1 [Example 72] : 133 to 134 °C

Sample Cc1nccn1-c1nc(-c2ccc(Cl)cc2)c(CCC2=NCCS2)o1 [Example 60] ; melting point observed: 73 to 74 °C

Looking up CCOc1nc(-c2ccc(Cl)cc2)c(CCC(=O)O)o1 [Example 3] , I see its melting point listed as 148 to 149 °C

Recorded result, CNc1nc(-c2ccc(Cl)cc2)c(CCC(=O)O)o1 [Example 16] , melting point: 217 to 218 °C

Lookup result for Cc1nccn1-c1nc(-c2ccc(Cl)cc2)c(CCCC(=O)NCCCl)o1 ; measured melting point: 131 to 132 °C

----------
experimental-readout: melting point

Given item O=C(O)CCc1oc(N2CCOCC2)nc1-c1ccc(Cl)cc1 , the value recorded as its melting point is 180 to 181 °C

So for CSc1nc(-c2ccc(Cl)cc2)c(CCC(=O)O)o1 , the logged melting point turned out to be 183 to 184 °C

Entry Cc1nccn1-c1nc(-c2ccc(Cl)cc2)c(CCCCn2cncn2)o1 ; melting point = 74 to 75 °C

# melting point of Cc1nc(-c2nc(-c3ccc(Cl)cc3)c(CCCCCO)o2)c[nH]1 = 94 to 95 °C

Form field melting point, entry O=C(O)CCc1oc(Cl)nc1-c1ccc(Cl)cc1 : 169 to 170 °C

Quick note, melting point for CCc1nccn1-c1nc(-c2ccc(Cl)cc2)c(CCC2=NCCO2)o1 landed at 53 to 54 °C

// field: melting point; key: O=C(O)CCc1oc(SCc2ccccn2)nc1-c1ccc(Cl)cc1 ; value = 125 to 126 °C

Noted for CON(C)C(=O)CCc1oc(-n2ccnc2C)nc1-c1ccc(Cl)cc1 : its melting point reads 116 to 117 °C

melting point reported for this compound CCOC(=O)c1nccn1CCCCc1oc(-n2ccnc2C)nc1-c1ccc(Cl)cc1 : 134 to 135 °C

Looking up Cc1nccn1-c1nc(-c2ccc(Cl)cc2)c(CCC(=O)NCCCl)o1 , I see its melting point listed as 155 to 156 °C

Looking up CCCc1nccn1-c1nc(-c2ccc(Cl)cc2)c(CCC(=O)O)o1 , I found its melting point recorded as 174 to 175 °C

Memo: CCOC(=O)CCCCc1oc(-n2ccnc2C)nc1-c1ccc(Cl)cc1 , reported melting point: 93 to 94 °C
